- Test system: SR leukemia
- Method: NCI-60 one-dose screen, 48 h (100 = growth as untreated, 0 = no growth, -100 = all killed)
- Condition description: 10 µM unless noted
Compounds without any hit were thinned out: in the full panel of roughly 83,000, 20% have a hit.
Classes by growth: low-valued: < 10%; mid-valued: ≥ 10% and < 70%; high-valued: ≥ 70%

Some entries whose results are on file:
Cc1cc(N2CCCC2)nc(N(CCNc2ccnc3cc(Cl)ccc23)Cc2ccco2)n1
low-valued
[B-][N+](CC)(CC)c1ccccc1
high-valued
O=Cc1nc2ccccc2[nH]1
high-valued
COc1cc(OC)c2c(c1)c1nc3cc(C)c(C)cc3nc1n2CCN(C)C
mid-valued
COc1ccc(C2C(C#N)=C(N)Oc3c2sc2c(F)cccc32)cc1 (stereo unspecified)
mid-valued
O=C(/C(=C(\C(=O)c1ccccc1)c1ccccc1)c1ccccc1)c1ccccc1
mid-valued
COc1cc2c3c(c4c5ccccc5[nH]c4c2c(OC)c1OC)C(=O)N(O)C3=O
mid-valued
CCCCn1c(-c2ccc(O)cc2)cn2c3c(=O)[nH]c(=O)n(C)c3nc12
mid-valued

In: Returns: class label. Input: O=S(=O)(NCCCNc1cc(-c2cn(-c3ccccc3)nc2-c2cccc(O)c2)ccn1)c1ccc(F)cc1
Out: low-valued

In: For the record Cc1cccc(C)c1NC(=O)CSC(=S)N1CCN(CCOCCO)CC1 , report the class its growth corresponds to.
Out: high-valued

In: Into which bin does this compound go? COc1ccc(OC)c(-c2c(C#N)c(-c3ccco3)nc3c2c(-c2ccccc2)nn3-c2ccccc2)c1
Out: high-valued

In: Each compound maps to one class by growth. Which class for COc1ccc(/C=C/C(=O)NCCO)cc1 ?
Out: high-valued

In: Note: place this compound into its band. Item: COc1cc(-c2cc3ncccc3c3nc(N)c4cccnc4c23)cc(OC)c1OC
Out: mid-valued

In: Which of the defined bands does the recorded growth of CCN1CCN(C(=O)[C@]23CC[C@@H](C)[C@H](C)[C@H]2C2=CC[C@@H]4[C@@]5(C)C/C(=C/c6cccc(OC)c6OC)C(=O)C(C)(C)[C@@H]5CC[C@@]4(C)[C@]2(C)CC3)CC1 sit within?
Out: low-valued

In: Bin? CCC(c1ccc(OC)cc1)C(CC)c1ccc(O)c(CN2CCCCC2)c1 (stereo unspecified)
Out: low-valued

In: Which category does the recorded growth put C(=C\c1c[nH]c2ccccc12)/c1ccc2ccccc2n1 in?
Out: mid-valued

In: The entry to classify is CC1(C)c2ccccc2C(=O)C1(Br)Cc1ccccc1 (stereo unspecified) ; which class holds it?
Out: mid-valued

In: Class for Cc1ccc(/C=C(\C#N)c2cc3ccccc3n2C)cc1 ?
Out: mid-valued

In: Into which bin does this compound go? CC(=O)N1N=C(c2ccc(C)cc2)CC1c1ccc(Oc2ccc(Br)cc2)cc1 (stereo unspecified)
Out: high-valued

In: Category lookup for the compound CC(=O)Oc1ccccc1C(=O)/C=C/c1cccc([N+](=O)[O-])c1
Out: low-valued
